Data provenance: PubChem BioAssay

- ASSAY PROTOCOL: growth inhibition, single agents and combos, CRL2098, cell-based, BGB or cisplatin IC20 combos, synergistic combos for chromothripsis tumors (AID 1671454);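 note: cells exposed for 96 h before readout; 0% = vehicle DMSO and 100% = killing by high DMSO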
- MEASUREMENT CONDITIONS: CRL2098 osteosarcoma cells, drug combinations, at 0.5 µM, stronger effect = higher value
Returns one of met or not met; met when inhibition is >= -10%.

[[record]]
smi = "CN(C)C/C=C/C(=O)Nc1ccc(C(=O)Nc2cccc(Nc3ncc(Cl)c(-c4c[nH]c5ccccc45)n3)c2)cc1"
group_label = "met"

[[record]]
smi = "CC(C)OC(=O)[C@H](C)N[P@](=O)(OC[C@H]1O[C@@H](n2ccc(=O)[nH]c2=O)[C@](C)(F)[C@@H]1O)Oc1ccccc1"
group_label = "not met"

[[record]]
smi = "O=C(/C=C/c1ccc(CN(CCO)CCc2c[nH]c3ccccc23)cc1)NO"
group_label = "met"

[[record]]
smi = "CN(C)Cc1c(C(=O)NCCOc2ccc(C(=O)NO)cc2)oc2ccccc12"
group_label = "met"

[[record]]
smi = "CCCCc1nc2cc(/C=C/C(=O)NO)ccc2n1CCN(CC)CC"
group_label = "met"


# bool: inhibition of `O=C(/C=C/c1cccc(S(=O)(=O)Nc2ccccc2)c1)NO` >= -10%
not met

# bool: inhibition of `CO[C@H]1/C=C/O[C@@]2(C)Oc3c(C)c(O)c4c(O)c(c(/C=N\N5CCN(C6CCCC6)CC5)c(O)c4c3C2=O)NC(=O)/C(C)=C\C=C\[C@H](C)[C@H](O)[C@@H](C)[C@@H](O)[C@@H](C)[C@H](OC(C)=O)[C@@H]1C` >= -10%
not met

# bool: inhibition of `O=C(O)CO.[NH2-].[NH2-].[Pt+2]` >= -10%
not met

====

- ASSAY PROTOCOL: drug combination growth inhibition, ovarian cancer – cell-based, oncology-focused library, rucaparib conditional, profiling panel (AID 1508598)
- MEASUREMENT CONDITIONS: patient-derived ovarian cancer cells, CellTiter-Glo viability, 144 h; at 0.000305 µM; OCI-C5x cells; with rucaparib 10 µM; stronger effect = lower value; 100% = cells with rucaparib alone
READOUT LABEL: viability (%)
Could you give me the number in %? Just the number is fine.

[[record]]
compound = "O=C(c1cc(Cc2n[nH]c(=O)c3ccccc23)ccc1F)N1CCN(C(=O)C2CC2)CC1"
unit_name = "%"
recorded_value = 125

[[record]]
compound = "CN(C)Cc1c(C(=O)NCCOc2ccc(C(=O)NO)cc2)oc2ccccc12"
unit_name = "%"
recorded_value = 130

[[record]]
compound = "CCCCc1nc2cc(/C=C/C(=O)NO)ccc2n1CCN(CC)CC"
unit_name = "%"
recorded_value = 109

[[record]]
compound = "COc1ccc(C2=NC(c3ccc(Cl)cc3)C(c3ccc(Cl)cc3)N2C(=O)N2CCNC(=O)C2)c(OC(C)C)c1 (centres undefined)"
unit_name = "%"
recorded_value = 120

[[record]]
compound = "COCCOc1nc(-c2ccc(Cl)c(Cl)c2)n(-c2ccc(NC(=O)CCl)cc2)n1"
unit_name = "%"
recorded_value = 125

[[record]]
compound = "O=C(O)CCC1CCC(c2cc(F)ccc2F)(S(=O)(=O)c2ccc(Cl)cc2)CC1 (centres undefined)"
unit_name = "%"
recorded_value = 114


Quickly give me recorded viability for `COc1ccc(-c2ccc3c(N4CCOC[C@@H]4C)nc(N4CCOC[C@@H]4C)nc3n2)cc1CO`
112

Quickly give me recorded viability for `O=C(CCCCCCC(=O)Nc1ccc([C@H]2O[C@@H](CSc3nc(-c4ccccc4)c(-c4ccccc4)o3)C[C@@H](c3ccc(CO)cc3)O2)cc1)NO`
114

Quickly give me recorded viability for `CN(c1ncccc1CNc1nc(Nc2ccc3c(c2)CC(=O)N3)ncc1C(F)(F)F)S(C)(=O)=O`
100
